All values here come from patent US20240309056A1.

Attribute: Kd
- tested-system: T1, ubiquitin mutein 200053
- T1 construct: also called Affilin-200053
- method-notes: SPR (Biacore 3000), ligand multimer immobilised, ubiquitin mutein in solution
All answers are understood in nM, so give the number only.

SEQ1 trimer (216000) (designed binder) NAAMDDFAQYSAWAEIEALPNLTEMQKDQFIWSLMFDPSVSKEVLGEAQKLNDSQAPKQAPKVDAKFDQAPKVDAKFDNAAMDDFAQYSAWAEIEALPNLTEMQKDQFIWSLMFDPSVSKEVLGEAQKLNDSQAPKQAPKVDAKFDQAPKVDAKFDNAAMDDFAQYSAWAEIEALPNLTEMQKDQFIWSLMFDPSVSKEVLGEAQKLNDSQAPKC :: 6.5

Lab book: Kd of SEQ 21 tetramer (215998) (designed binder) NAARSDEAQYSAWAEIEALPNLTEMQKDQFIWSLMFDPSVSKEVLGEAQKLNDSQAPKQAPKVDAKFDQAPKVDAKFDNAARSDEAQYSAWAEIEALPNLTEMQKDQFIWSLMFDPSVSKEVLGEAQKLNDSQAPKQAPKVDAKFDQAPKVDAKFDNAARSDEAQYSAWAEIEALPNLTEMQKDQFIWSLMFDPSVSKEVLGEAQKLNDSQAPKQAPKVDAKFDQAPKVDAKFDNAARSDEAQYSAWAEIEALPNLTEMQKDQFIWSLMFDPSVSKEVLGEAQKLNDSQAPKC noted as 8.3

Lab book: Kd of SEQ1 tetramer (216001) (designed binder) NAAMDDFAQYSAWAEIEALPNLTEMQKDQFIWSLMFDPSVSKEVLGEAQKLNDSQAPKQAPKVDAKFDQAPKVDAKFDNAAMDDFAQYSAWAEIEALPNLTEMQKDQFIWSLMFDPSVSKEVLGEAQKLNDSQAPKQAPKVDAKFDQAPKVDAKFDNAAMDDFAQYSAWAEIEALPNLTEMQKDQFIWSLMFDPSVSKEVLGEAQKLNDSQAPKQAPKVDAKFDQAPKVDAKFDNAAMDDFAQYSAWAEIEALPNLTEMQKDQFIWSLMFDPSVSKEVLGEAQKLNDSQAPKC noted as 6.5

Lab book: Kd of SEQ21 dimer (215996) (designed binder) NAARSDEAQYSAWAEIEALPNLTEMQKDQFIWSLMFDPSVSKEVLGEAQKLNDSQAPKQAPKVDAKFDQAPKVDAKFDNAARSDEAQYSAWAEIEALPNLTEMQKDQFIWSLMFDPSVSKEVLGEAQKLNDSQAPKC noted as 5.5
